Tested on: EGFR(G719S)
settings: Compound Concentration (nM):1000;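 note: KINOMEscan scanMAX binding as percent activity remaining versus control; lower means stronger binding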
Please map values of Percent Control to classes as shown: bucket 1: < 60%; bucket 2: ≥ 60% and < 80%; bucket 3: ≥ 80%

>>> label("CC1=C(C(=O)Nc2ccc3[nH]ncc3c2)C(c2ccc3ccccc3c2)CC(=O)N1 (stereo not shown) [GSK270822A]")
"bucket 3"
>>> label("COc1cccc(-c2c[nH]c3c(N/N=C/c4ccncc4)ncnc23)c1 [GW814408X]")
"bucket 1"
>>> label("C/C(Nc1ccc(S(N)(=O)=O)cc1)=C1/C(=O)Nc2ccccc21 [GW335962X]")
"bucket 2"
>>> label("NS(=O)(=O)c1ccc(N/N=C2\\C(=O)Nc3ccc(C(=O)NCCc4c[nH]cn4)cc32)cc1 [GW300660X]")
"bucket 2"
>>> label("NS(=O)(=O)c1ccc(N/N=C2\\C(=O)Nc3ccc(-c4cnco4)cc32)cc1")
"bucket 2"
>>> label("COc1ccc2[nH]c3c4[nH]c5ccc(OC)cc5c4c4c(c3c2c1)C(=O)NC4=O [GW296115X]")
"bucket 1"
>>> label("COC(=O)Nc1nc2ccc(Oc3ccc(NC(=O)Nc4cc(C(F)(F)F)ccc4F)cc3)cc2s1.Cl [GW693917A]")
"bucket 3"
>>> label("NS(=O)(=O)c1ccc(N/N=C2\\C(=O)Nc3ccc(Cl)cc32)cc1 [GW280670X]")
"bucket 3"
>>> label("COc1cc(C=NNc2ncnc3c2cnn3-c2ccccc2)ccc1O [GW513184X]")
"bucket 1"
>>> label("NS(=O)(=O)c1ccc(N/N=C2\\C(=O)Nc3ccc(C(=O)NCc4ccncc4)cc32)cc1 [GW300657X]")
"bucket 3"
>>> label("Cl.c1ccc(Cc2nc3ccc(Nc4ncnc5ccccc45)cc3[nH]2)cc1 [GR269666A]")
"bucket 1"
>>> label("COc1ccc2cc(-c3c(-c4ccncc4)nc(-c4ccc(S(C)(=O)=O)cc4C)n3C)ccc2c1")
"bucket 3"
>>> label("O=C1Nc2ccc(C(=O)c3ccco3)cc2C1=Cc1cc(Cl)c(O)c(Cl)c1 [GW406108X]")
"bucket 1"
>>> label("COc1cc2ncnc(Nc3ccc4c(cnn4Cc4ccccc4)c3)c2cc1OC.Cl [GW282449A]")
"bucket 1"
>>> label("Cl.O=C(Nc1ccc(Oc2ccc3[nH]c(NC(=O)c4ccco4)nc3c2)cc1)Nc1cc(C(F)(F)F)ccc1F [GW683134A]")
"bucket 3"
>>> label("CC(C)COC(=O)c1ccc2c(c1)/C(=C/Nc1ccc(S(N)(=O)=O)cc1)C(=O)N2 [GW416981X]")
"bucket 1"
>>> label("CN1CCN(C(=O)c2ccc(NC(=O)Nc3ccc(N(C)c4ccnc(Nc5ccc(CS(C)(=O)=O)cc5)n4)cc3)cc2)CC1.Cl [GW830263A]")
"bucket 3"

* * *

System: EPHB6
settings: Compound Concentration (nM):1000
As shown below, each of these molecules has a reported Percent Control value.
property.name: Percent Control (%)

>>> quantitative_readout("NS(=O)(=O)c1ccc(N/N=C2\\C(=O)Nc3ccc(-c4cnco4)cc32)cc1")
58
>>> quantitative_readout("Cc1cc(O)cc(C)c1/C=C/c1cncc(C(N)=O)c1 [GW435821X]")
6.6
>>> quantitative_readout("COc1ccc2[nH]c3c4[nH]c5ccc(OC)cc5c4c4c(c3c2c1)C(=O)NC4=O [GW296115X]")
7.3
>>> quantitative_readout("NS(=O)(=O)c1ccc(Nc2ncc(-c3ccccc3)o2)cc1 [GW572399X]")
35
>>> quantitative_readout("COc1cc(/C=N/Nc2ncnc3[nH]ncc23)ccc1O [GW578748X]")
1.6
>>> quantitative_readout("COC(=O)Nc1nc2ccc(Oc3ccc(NC(=O)Nc4cc(C(F)(F)F)ccc4F)cc3)cc2s1.Cl [GW693917A]")
9.4
>>> quantitative_readout("COc1cc(C=NNc2ncnc3c2cnn3-c2ccccc2)ccc1O [GW513184X]")
3.9
>>> quantitative_readout("Cl.O=C(O[C@H]1CN[C@H](C#Cc2cc3ncnc(Nc4ccc5c(cnn5Cc5ccccc5)c4)c3s2)C1)N1CCOCC1 [GSK200398A]")
100
>>> quantitative_readout("Cl.O=C(Nc1ccc(Oc2ccc3[nH]c(NC(=O)c4ccccc4)nc3c2)cc1)Nc1cc(C(F)(F)F)ccc1F [GW709042A]")
28
>>> quantitative_readout("Nc1ncnc2occ(-c3ccc(NC(=O)Nc4cc(C(F)(F)F)ccc4F)cc3)c12 [GW770249X]")
0.5
>>> quantitative_readout("COc1cccc(-n2ncc3c(N/N=C/c4ccncc4)ncnc32)c1 [GW784752X]")
100
>>> quantitative_readout("Cl.c1ccc(Cc2nc3ccc(Nc4ncnc5ccccc45)cc3[nH]2)cc1 [GR269666A]")
81
>>> quantitative_readout("Cl.O=C(Nc1ccc(Oc2ccc3[nH]c(NC(=O)c4ccco4)nc3c2)cc1)Nc1cc(C(F)(F)F)ccc1F [GW683134A]")
3.2
>>> quantitative_readout("CC(C)COC(=O)c1ccc2c(c1)/C(=C/Nc1ccc(S(N)(=O)=O)cc1)C(=O)N2 [GW416981X]")
100
>>> quantitative_readout("COc1ccccc1-c1cc(/C=C2\\C(=O)Nc3ncc(Br)cc32)cc(Br)c1O [GW442130X]")
42
>>> quantitative_readout("COc1cc(N2CCN(C(C)C)CC2)ccc1Nc1nc(Nc2ccc(F)cc2C(=O)NC[C@@H](O)CO)c2cc[nH]c2n1 [GSK1392956A]")
93
>>> quantitative_readout("CN1CCN(C(=O)c2ccc(NC(=O)Nc3ccc(N(C)c4ccnc(Nc5ccc(CS(C)(=O)=O)cc5)n4)cc3)cc2)CC1.Cl [GW830263A]")
4.3

* * *

As shown below, each of these compounds has a reported Percent Control value.
Test system: OSR1
Construct: gene OXSR1
settings: Compound Concentration (nM):1000
property.name: Percent Control (%)

>>> quantitative_readout("NS(=O)(=O)c1ccc(N/N=C2\\C(=O)Nc3ccc(C(=O)NCc4ccncc4)cc32)cc1 [GW300657X]")
75
>>> quantitative_readout("Cl.O=S1CCN(Cc2ccc(-c3ccc4ncnc(Nc5ccc(OCc6ccccc6)c(F)c5)c4c3)o2)CC1 [GW576924A]")
100
>>> quantitative_readout("COc1ccc2[nH]c3c4[nH]c5ccc(OC)cc5c4c4c(c3c2c1)C(=O)NC4=O [GW296115X]")
100
>>> quantitative_readout("COc1ccc2c(-c3ccnc(Nc4cccc(OC(F)(F)F)c4)n3)cnn2n1 [GW810372X]")
100
>>> quantitative_readout("CN(C)c1cc2c(Nc3ccc4c(cnn4Cc4ccccc4)c3)ncnc2cn1 [GW282974X]")
100
>>> quantitative_readout("CC1=C(C(=O)Nc2ccc3[nH]ncc3c2)C(c2ccc3ccccc3c2)CC(=O)N1 (centres unmarked) [GSK270822A]")
74
>>> quantitative_readout("COc1cc2ncn(-c3cc(O[C@H](C)c4ccccc4Cl)c(C(N)=O)s3)c2cc1OC [GSK237701A]")
78
>>> quantitative_readout("COc1cc(C)c(N(C)C(=O)CN(C)C)cc1Nc1nc(Nc2cccc(F)c2C(N)=O)c2cc[nH]c2n1 [GSK2219385]")
100

* * *

Test system: CASK
settings: Compound Concentration (nM):1000
Criterion: Percent Control strictly less than 90%. Met: yes (1). Not met: no (0).

>>> label("NS(=O)(=O)c1ccc(N/N=C2\\C(=O)Nc3ccc(-c4cnco4)cc32)cc1 [GW276655]")
"yes (1)"
>>> label("COc1cccc(-c2c[nH]c3c(N/N=C/c4ccncc4)ncnc23)c1 [GW814408X]")
"yes (1)"
>>> label("Cc1cc(O)cc(C)c1/C=C/c1cncc(C(N)=O)c1 [GW435821X]")
"yes (1)"
>>> label("NS(=O)(=O)c1ccc(N/N=C2\\C(=O)Nc3ccc(C(=O)NCCc4c[nH]cn4)cc32)cc1 [GW300660X]")
"no (0)"
>>> label("NS(=O)(=O)c1ccc(N/N=C2\\C(=O)Nc3ccc(C(=O)NCc4ccncc4)cc32)cc1 [GW300657X]")
"yes (1)"
>>> label("CC(C)COC(=O)c1ccc2c(c1)/C(=C/Nc1ccc(S(N)(=O)=O)cc1)C(=O)N2 [GW416981X]")
"no (0)"
>>> label("COC(=O)Nc1nc2ccc(Oc3ccc(NC(=O)Nc4cc(C(F)(F)F)ccc4F)cc3)cc2s1.Cl [GW693917A]")
"no (0)"
>>> label("COc1ccccc1-c1cc(/C=C2\\C(=O)Nc3ncc(Br)cc32)cc(Br)c1O [GW442130X]")
"no (0)"
>>> label("Cl.O=C(Nc1ccc(Oc2ccc3[nH]c(NC(=O)c4ccccc4)nc3c2)cc1)Nc1cc(C(F)(F)F)ccc1F [GW709042A]")
"no (0)"
>>> label("C[C@@H](Oc1cc(-n2cnc3ccc(OC4CCN(C)CC4)cc32)sc1C(N)=O)c1ccccc1Cl [GSK579289A]")
"yes (1)"
>>> label("COc1ccc2[nH]c3c4[nH]c5ccc(OC)cc5c4c4c(c3c2c1)C(=O)NC4=O [GW296115X]")
"no (0)"
>>> label("COc1cc2ncnc(Nc3ccc4c(cnn4Cc4ccccc4)c3)c2cc1OC.Cl [GW282449A]")
"no (0)"
>>> label("CC1=C(C(=O)Nc2ccc3[nH]ncc3c2)C(c2ccc(Cl)c(Cl)c2)CC(=O)N1 (centres unmarked) [GSK299115A]")
"no (0)"
>>> label("COc1ccc2cc(-c3c(-c4ccncc4)nc(-c4ccc(S(C)(=O)=O)cc4C)n3C)ccc2c1 [SB-633825]")
"yes (1)"
>>> label("COc1cc(C=NNc2ncnc3c2cnn3-c2ccccc2)ccc1O [GW513184X]")
"yes (1)"
>>> label("COc1cc(C)c(N(C)C(=O)CN(C)C)cc1Nc1nc(Nc2cccc(F)c2C(N)=O)c2cc[nH]c2n1 [GSK2219385]")
"no (0)"
>>> label("Cl.c1ccc(Cc2nc3ccc(Nc4ncnc5ccccc45)cc3[nH]2)cc1 [GR269666A]")
"no (0)"
>>> label("CN(C)c1cc2c(Nc3ccc4c(cnn4Cc4ccccc4)c3)ncnc2cn1 [GW282974X]")
"no (0)"
